Ref: ChEMBL document CHEMBL1158936

biological target: Human immunodeficiency virus type 1 reverse transcriptase (Human immunodeficiency virus 1) (UniProt Q72547); experiment: Inhibition of HIV1 reverse transcriptase
Active and inactive are the calls of the source. No cut-off for these calls is given here.
Hi! Could you answer with just one of these? active, inactive

Some solved cases for reference:
>  <input-smiles>
COC1=CC(=O)C(C[C@]2(C)[C@@H](C)CC[C@]3(C)C(C)=CCC[C@@H]23)=C(O)C1=O

>  <class>
active

$$$$
>  <input-smiles>
CC1=CCC[C@H]2[C@](C)(CC3=C(O)C(=O)C=C(O)C3=O)[C@@H](C)CC[C@]12C

>  <class>
active

$$$$
>  <input-smiles>
CC(=O)Oc1c(O)ccc(O)c1C[C@]1(C)[C@@H](C)CC[C@]2(C)C(C)=CCC[C@@H]12

>  <class>
inactive

$$$$
>  <input-smiles>
CC(=O)OC1=C(C[C@]2(C)[C@@H](C)CC[C@]3(C)C(C)=CCC[C@@H]23)C(=O)C=CC1=O

>  <class>
inactive

$$$$
>  <input-smiles>
CC1=CCC[C@H]2[C@](C)(Cc3c(O)ccc(O)c3O)[C@@H](C)CC[C@]12C

>  <class>
inactive

$$$$

Field: next compound
Incoming: Any idea what this test logged for CC1=CCC[C@H]2[C@](C)(CC3=CC(=O)C=C(O)C3=O)[C@@H](C)CC[C@]12C ?
Outgoing: active
